// provenance: patent US10399940B2

ASSAY TARGET: F508delCFTR (Homo sapiens, UniProt P13569, DEL508-508)
Construct: expressed in transfected cells; host or cells: CFBE41o- (human lung derived epithelial cell line), doxycycline-inducible expression
Sequence (P13569 with tags, fused parts or gaps DEL508-508): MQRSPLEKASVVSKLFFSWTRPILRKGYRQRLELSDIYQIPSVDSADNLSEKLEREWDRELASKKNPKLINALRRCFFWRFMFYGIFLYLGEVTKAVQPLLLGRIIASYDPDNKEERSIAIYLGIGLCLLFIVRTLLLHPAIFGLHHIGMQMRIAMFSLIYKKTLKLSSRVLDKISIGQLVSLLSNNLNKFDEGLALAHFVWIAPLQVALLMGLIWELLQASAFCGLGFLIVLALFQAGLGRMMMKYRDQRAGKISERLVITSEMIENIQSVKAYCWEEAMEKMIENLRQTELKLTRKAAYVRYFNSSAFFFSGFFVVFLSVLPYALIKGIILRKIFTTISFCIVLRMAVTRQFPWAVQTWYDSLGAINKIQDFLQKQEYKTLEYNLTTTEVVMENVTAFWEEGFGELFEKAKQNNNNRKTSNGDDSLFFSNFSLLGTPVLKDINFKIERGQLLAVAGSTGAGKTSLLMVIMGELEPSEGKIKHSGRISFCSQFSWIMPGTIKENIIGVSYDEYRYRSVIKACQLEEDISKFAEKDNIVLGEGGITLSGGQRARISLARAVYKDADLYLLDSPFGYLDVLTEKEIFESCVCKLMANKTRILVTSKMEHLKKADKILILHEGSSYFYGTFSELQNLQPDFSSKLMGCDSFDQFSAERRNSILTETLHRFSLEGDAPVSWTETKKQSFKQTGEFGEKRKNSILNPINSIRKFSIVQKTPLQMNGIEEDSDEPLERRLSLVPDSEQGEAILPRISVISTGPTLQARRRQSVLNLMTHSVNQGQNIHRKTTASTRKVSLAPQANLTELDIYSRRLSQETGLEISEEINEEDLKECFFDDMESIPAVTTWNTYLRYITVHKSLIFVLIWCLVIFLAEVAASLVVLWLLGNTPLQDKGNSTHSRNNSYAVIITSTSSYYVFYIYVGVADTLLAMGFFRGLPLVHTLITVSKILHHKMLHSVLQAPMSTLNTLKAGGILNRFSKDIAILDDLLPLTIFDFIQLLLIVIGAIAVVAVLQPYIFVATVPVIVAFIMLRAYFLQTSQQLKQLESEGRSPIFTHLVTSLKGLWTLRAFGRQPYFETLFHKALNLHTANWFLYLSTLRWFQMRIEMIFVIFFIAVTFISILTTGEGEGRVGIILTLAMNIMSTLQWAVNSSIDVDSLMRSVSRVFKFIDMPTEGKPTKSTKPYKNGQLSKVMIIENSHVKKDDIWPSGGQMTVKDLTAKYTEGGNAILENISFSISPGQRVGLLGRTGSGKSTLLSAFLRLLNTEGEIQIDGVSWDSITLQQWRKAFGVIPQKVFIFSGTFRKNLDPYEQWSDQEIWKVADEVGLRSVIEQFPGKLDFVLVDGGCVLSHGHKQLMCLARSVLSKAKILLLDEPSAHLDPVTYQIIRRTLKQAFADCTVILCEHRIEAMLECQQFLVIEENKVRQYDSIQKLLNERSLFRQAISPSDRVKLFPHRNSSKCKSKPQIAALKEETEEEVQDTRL
METHOD: Cell Surface Expression-Horse Radish Peroxidase (CSE-HRP) assay;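 also: % of on-plate positive control (2 µM of the co-corrector compound) after DMSO subtraction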
Type: cell-based
CONDITION INFO: CFBE41o-F508delCFTR-HRP cells; without co-corrector; normalized to on-plate positive control; highest concentration 20 μM
MEASURED METRIC: Maximum % activity (without co-corrector)

See these solved cases before continuing.
{"COMPOUND": "COc1ncc(C(F)(F)F)cc1CO[C@H]1[C@H](C(C)(C)C)[C@@H](C(=O)O)N(C(=O)C2CCCCC2)[C@H]1c1ccccc1 [Example 41]", "MEASURED": "++ (≥100 and <200)"}
{"COMPOUND": "COc1ncc(C2(C)CC2)cc1CO[C@H]1[C@H](C(C)(C)C)[C@@H](C(=O)O)N(C(=O)[C@@H]2CCCCO2)[C@H]1c1ccccc1C [Example 243]", "MEASURED": "+++ (≥200)"}
{"COMPOUND": "COc1ccc(C(F)(F)F)cc1CO[C@@H]1[C@H](C(C)(C)C)[C@@H](C(=O)O)N(C(=O)OC(C)C)[C@H]1c1cccnc1OC(C)C [Example 94]", "MEASURED": "+ (<100)"}
{"COMPOUND": "COc1ccc(C(C)(C)C)cc1CO[C@H]1[C@H](C(C)(C)C)[C@@H](C(=O)O)N(C(=O)O[C@@H](C)C(F)(F)F)[C@H]1c1cccnc1OC(C)C [Example 274]", "MEASURED": "+++ (≥200)"}
{"COMPOUND": "COc1ncc(C2CCC2)cc1CO[C@H]1[C@H](C(C)(C)C)[C@@H](C(=O)O)N(C(=O)[C@@H]2CCCO2)[C@H]1c1ccccc1Br [Example 144]", "MEASURED": "++ (≥100 and <200)"}

stdin: Given CO[C@H]1CCC[C@H](C(=O)N2[C@H](c3ccccc3)[C@H](Oc3cc(C(F)(F)F)cc(C)n3)[C@@H](C(C)(C)C)[C@@H]2C(=O)O)C1 [Example 28] , report its Maximum % activity (without co-corrector) on F508delCFTR (Homo sapiens, UniProt P13569, DEL508-508).
stdout: ++ (≥100 and <200)

stdin: Given COc1ncc(C(F)(F)F)cc1CO[C@H]1[C@H](C(C)(C)C)[C@@H](C(=O)O)N(C(=O)OC(C)C)[C@H]1c1cccc(Cl)c1 [Example 79] , report its Maximum % activity (without co-corrector) on F508delCFTR (Homo sapiens, UniProt P13569, DEL508-508).
stdout: + (<100)

stdin: Given COc1ccc(C(C)(C)C)cc1CO[C@H]1[C@H](C(C)(C)C)[C@@H](C(=O)O)N(C(=O)OC(C)C)[C@H]1c1ccccc1 [Example 47] , report its Maximum % activity (without co-corrector) on F508delCFTR (Homo sapiens, UniProt P13569, DEL508-508).
stdout: +++ (≥200)

stdin: Given COc1nc(C(C)(C)C)ccc1CO[C@H]1[C@H](C(C)(C)C)[C@@H](C(=O)O)N(C(=O)OC(C)C)[C@H]1c1ccccc1 [Example 72] , report its Maximum % activity (without co-corrector) on F508delCFTR (Homo sapiens, UniProt P13569, DEL508-508).
stdout: + (<100)

stdin: Given COc1ccc(C(F)(F)F)cc1[C@@H](C)CO[C@H]1[C@H](C(C)(C)C)[C@@H](C(=O)O)N(C(=O)[C@@H]2CCCCO2)[C@H]1c1ccccc1C [Example 272] , report its Maximum % activity (without co-corrector) on F508delCFTR (Homo sapiens, UniProt P13569, DEL508-508).
stdout: +++ (≥200)

stdin: Given COc1nc(C(C)(C)C)ccc1CO[C@H]1[C@H](C(C)(C)C)[C@@H](C(=O)O)N(C(=O)[C@@H]2CCCCO2)[C@H]1c1cccnc1OC(C)C [Example 290] , report its Maximum % activity (without co-corrector) on F508delCFTR (Homo sapiens, UniProt P13569, DEL508-508).
stdout: ++ (≥100 and <200)
